parameter: melting point

Sample COc1ccc(-c2cc(C(=O)O)c(=O)n(CC3CCCC3)n2)cc1F — what was its melting point? 159 to 161 °C

Try the compound CC(C)Cc1nn(C)c(=O)c2c(SCCCO)n(Cc3cccc4ccccc34)nc12 141 to 142 °C

Try the compound CCCCOc1ccc(S(=O)(=O)C2(C(=O)NO)CCN(Cc3ccc(OC)cc3)CC2)cc1 173 °C

Try the compound COc1ccc(-n2nnc3ccc(-c4nnc(CCc5cccc(F)c5)o4)cc32)cc1 125 to 126 °C

Try the compound CC(C)(C)OC(=O)Nc1cc2nc(-c3ccccc3)nn2cc1F 180 to 188 °C

Try the compound CCOC(=O)c1cn(CC)c2nc(N3CCC(NC(C)=O)C3)c(F)cc2c1=O (centres undefined) 266 to 269 °C

Try the compound N#Cc1ccc2cc(-c3cccc(O)c3)oc2c1 225 to 227 °C

Try the compound COc1ccc(S(=O)(=O)N2c3ccc(Br)cc3-c3ccccc3C2C(C)(C)C)cc1 (centres undefined) 195 to 198 °C

Try the compound NC(=O)[C@@H]1[C@H]2CC[C@H](C2)[C@@H]1Nc1nc(Nc2ccc3c(c2)CCC(NCC(F)(F)F)CC3)ncc1Cl (some centres undefined) 218 °C

###

Can you tell me melting point for the items I'm about to list?

Sample c1ncc2ncncc2n1 — what was its melting point? 124 to 126 °C

Try the molecule COc1ccc(C2=C(c3ccc(S(C)(=O)=O)cc3)C(C)(C)OC2=O)cc1 148 °C

Try the molecule CCOC(=O)c1cnc2n(c1=O)C(C)CCC2=NNC(=O)c1ccc2c(c1)OCO2 (stereo not drawn) 183 to 185 °C

Try the molecule COC(=O)CCCc1ccc(C(=O)CCCc2ccccc2)cc1 61 to 62 °C

Try the molecule CCCCCCCCCCCCCCCCCC1=NCCO1 52 to 53 °C

Try the molecule COC(=O)c1ccc(C2=NOC(c3cc(Cl)cc(Cl)c3)(C(F)(F)F)C2)cc1 (stereo not drawn) 94 to 96 °C

Try the molecule CCCn1c(=O)c2c(Cl)cc(Cl)cc2n(Cc2ccccc2)c1=O 111 to 115 °C

Try the molecule O=C(NC=CC1CC2C=CC1C2)n1cc(F)c(=O)[nH]c1=O (stereo not drawn) 130 to 132 °C

Try the molecule COC(=O)Nc1nc2ccc(Oc3ccccn3)cc2[nH]1 246 to 253 °C

Try the molecule COc1c(C)cc([N+](=O)[O-])c(NC(C)C)c1[N+](=O)[O-] 77.5 to 79 °C

Try the molecule CS(=O)(=O)c1ccc(N2CCc3[nH]c4c(cnc5cc(Cl)ccc54)c3C2)cc1 > 250 °C

Try the molecule COC(=O)c1ccccc1-c1cnc(-c2cccc(C(F)(F)F)c2)o1 84.5 to 86 °C

Try the molecule CC(=O)NCCNC(=O)c1ccc(Br)s1 244 to 245 °C

###

Can you tell me melting point for the items I'm about to list?

Sample CCOC(=O)c1cnc(NN)nc1-c1ccccc1 — what was its melting point? 74 to 75 °C

Try the molecule CC1Cc2cc3c(cc2C(c2ccc([N+](=O)[O-])cc2)=NN1C(=O)Cc1ccccc1)OCO3 (centres undefined) 193 to 195 °C

Try the molecule Cc1cn(NC(=O)c2ccccc2C(=O)O)c2ccccc12 191 to 193 °C

Try the molecule O=C(Nc1ccc(CN2C(=O)C3CCCC3N(C(=O)CN3C(=O)c4ccccc4C3=O)c3ccccc32)cc1)c1ccc2ccccc2c1 (centres undefined) 191 to 194 °C

Try the molecule CN(Cc1cccc(-c2ccc(CC3SC(=O)NC3=O)cc2)c1)C(=O)c1ccno1 (centres undefined) 160 °C

Try the molecule COC1CC(c2ccc(-c3ccc(C#N)cc3)cc2)C(OC)O1 (centres undefined) 149 to 150 °C

Try the molecule Cc1c(-c2cnccn2)ssc1=S 164 °C

Try the molecule COc1ccccc1-c1cc(C(C)(C)C)c(O)c(C(C)(C)C)c1 98.5 to 100 °C

Try the molecule CC(C(=O)c1ccccc1)=C1CCCN1 91 to 92 °C

Try the molecule O=C1NC(=O)C(N2C(=O)c3ccccc3C2=O)CC1O (centres undefined) 195 to 230 °C

Try the molecule COc1cc2nc(C(=O)Nc3cc(C)cc(C)n3)[nH]c2cc1OC 256 °C

Try the molecule CCc1oc2ccccc2c1C(=O)NCc1ccc2cc(O)ccc2c1 203 to 205 °C

Try the molecule O=S(=O)(O)CCN1CCOCC1 68 to 78 °C

Try the molecule S=C(Nc1ccc(Br)cn1)N[C@@H]1C[C@@H]1c1ccccc1 192 to 193 °C

Try the molecule CN1CCNC(=O)c2cccc(N)c21 130 to 133 °C

Try the molecule CCOC(=O)c1cc2c(nc(C)n2C)c2c1CCC(OC)(c1ccccc1C)O2 (centres undefined) 198 °C

Try the molecule CC(=O)Nc1ccc(Cc2nc3cc(CC4SC(=O)NC4=O)ccc3o2)cc1 (centres undefined) 233 to 236 °C

Try the molecule C=C1C(O)C(CO)OC1n1cc(F)c(N)nc1=O (centres undefined) 185 to 187 °C

Try the molecule NC(=NO)c1ncn2c1[C@@H]1CCN1C(=O)c1c-2ccc(F)c1Cl 236 to 238 °C

Try the molecule CCN1C(=O)C2CCCN2Cc2ccccc21 (centres undefined) 138 to 140 °C

Try the molecule CC(=O)OCc1ccc(S(=O)(=O)c2ccc(C)nc2Nc2c(C)cc(C)cc2C)cc1 132 to 134 °C

Try the molecule O=C1CCN(Cc2ccc3c(c2)OCO3)CC1C(c1ccccc1)c1ccccc1 (centres undefined) 113 to 114 °C

Try the molecule Nc1ccccc1C(=O)NCCCn1ccnc1 107 to 110 °C

Try the molecule COc1ccc(CN(C)CCc2ccc(NC(=O)c3cccc4c(=O)c5ccccc5n(C)c34)cc2)cc1OC 182 °C
